Data provenance: ChEMBL document CHEMBL1125487

organism: Oryctolagus cuniculus; assay: Effect on intraocular pressure in left eye was tested by using transition ocular hypertension model at 20 min.; also: test concentration or dose not given here; format: functional
Please respond with reported IOP for every item in the list.
Numbers only, in mmHg.

Use these answered entries as a reference point.
# Compound, IOP / mmHg
measured = [
    ("CCCCCOC(=O)CCC(=O)/N=c1/sc(S(N)(=O)=O)nn1C", 20.67),
    ("CCC(C)OC(=O)CCC(=O)Nc1nnc(S(N)(=O)=O)s1 (stereo not drawn)", 21.17),
]

Count: 6. Required value per item: IOP.
1. CCOC(=O)CCC(=O)Nc1nnc(S(N)(=O)=O)s1
2. COC(=O)CC(=O)Nc1nnc(S(N)(=O)=O)s1
3. NS(=O)(=O)c1nnc(NC(=O)CCC(=O)O)s1
4. NS(=O)(=O)c1nnc(NC(=O)CCCCC(=O)O)s1
5. CCCCCOC(=O)CCC(=O)Nc1nnc(S(N)(=O)=O)s1
6. NS(=O)(=O)c1nnc(NC(=O)CCCCCCCC(=O)O)s1

OUTPUT:
1: 20.67; 2: 22.5; 3: 21.67; 4: 21.67; 5: 21.33; 6: 20.67
